The reported measurements were obtained from paper PMC3742671.

- System: P. aeruginosa ATCC 27853
- ASSAY_SETUP: LB medium (pH 7), absorbance at 630 nm; average of three independent experiments in triplicates
Ends that are not written are not given here.
EXPERIMENTAL_ENDPOINT: MIC (µM)
Number only, in µM; omit the unit.

FLSMIPHIVSGVAALAKHL-NH2 [PLS-S4]	100

Alright, here's another substance for you.
Record lookup: for P. aeruginosa ATCC 27853, what MIC belongs to FLSLIPHIVSGVASLAKHF-NH2 [PLS-S2] ?
200

* * *

Recorded helix content, one value per entry.
- EXPERIMENT_NOTES: Circular dichroism spectroscopy in SDS micelles
- Format: physicochemical
- ASSAY_SETUP: CD, peptide 30 µM in 80 mM SDS
Ends that are not written are not given here.
Number only, in %; omit the unit.

Consider the reported helix content for these substances:
FLSLIPHIVSGVASLAIHF-NH2 [PLS-S3]	44
FLSLIPHIVSGVASIAKHF-NH2 [PLS-S1]	96
FLSLIPHIVSGVASLAKHF-NH2 [PLS-S2]	65
FLSMIPHIVSGVAALAKHL-NH2 [PLS-S4]	59

Alright, here's another substance for you.
Item under review: LLGMIPVAISAISALSKL-NH2 [PLS-S5] . Reported helix content?
20

* * *

- Tested on: E. coli ATCC 25922
- ASSAY_SETUP: ATCC 25922, pH 7
Ends that are not written are not given here.
EXPERIMENTAL_ENDPOINT: MIC (µM)
Number only, in µM; omit the unit.

Consider the reported MIC for these substances:
FLSLIPHIVSGVASLAKHF-NH2 [PLS-S2]	25
FLSMIPHIVSGVAALAKHL-NH2 [PLS-S4]	25

Alright, here's another substance for you.
Item under review: FLSLIPHIVSGVASIAKHF-NH2 [PLS-S1] . Reported MIC?
70

* * *

Recorded helix content, one value per entry.
- EXPERIMENT_NOTES: Circular dichroism spectroscopy with DMPC/DMPG (3:1) large unilamellar vesicles
- Format: physicochemical
- ASSAY_SETUP: CD, peptide 30 µM, DMPC/DMPG (3:1) LUVs 1 mg/mL in PBS pH 7.3
Ends that are not written are not given here.
Number only, in %; omit the unit.

FLSLIPHIVSGVASLAKHF-NH2 [PLS-S2]	80
FLSMIPHIVSGVAALAKHL-NH2 [PLS-S4]	68
FLSLIPHIVSGVASLAIHF-NH2 [PLS-S3]	65

Item under review: FLSLIPHIVSGVASIAKHF-NH2 [PLS-S1] . Reported helix content?
70

Item under review: LLGMIPVAISAISALSKL-NH2 [PLS-S5] . Reported helix content?
60

* * *

Recorded MIC, one value per entry.
- System: E. faecalis ATCC 29212
- ASSAY_SETUP: LB medium (pH 7), absorbance at 630 nm; average of three independent experiments in triplicates
Ends that are not written are not given here.

FLSLIPHIVSGVASIAKHF-NH2 [PLS-S1]	25 µM
FLSLIPHIVSGVASLAIHF-NH2 [PLS-S3]	>200 µM
FLSLIPHIVSGVASLAKHF-NH2 [PLS-S2]	25 µM
FLSMIPHIVSGVAALAKHL-NH2 [PLS-S4]	50 µM

Alright, here's another substance for you.
Item under review: LLGMIPVAISAISALSKL-NH2 [PLS-S5] . Reported MIC?
100 µM

* * *

- Test system: S. aureus ATCC 43300
- ASSAY_SETUP: strain resistant to methicillin and oxacillin; LB medium (pH 7), absorbance at 630 nm; average of three independent experiments in triplicates
Ends that are not written are not given here.
EXPERIMENTAL_ENDPOINT: MIC (µM)
Number only, in µM; omit the unit.

Item under review: FLSMIPHIVSGVAALAKHL-NH2 [PLS-S4] . Reported MIC?
6.25

Item under review: FLSLIPHIVSGVASLAKHF-NH2 [PLS-S2] . Reported MIC?
6.25

Item under review: FLSLIPHIVSGVASIAKHF-NH2 [PLS-S1] . Reported MIC?
6.25

* * *

Recorded IC50, one value per entry.
- Tested on: L. braziliensis (MHOM/BR/75/M2904) promastigotes
- Type: cell-based
Ends that are not written are not given here.
Number only, in µM; omit the unit.

Consider the reported IC50 for these substances:
FLSLIPHIVSGVASIAKHF-NH2 [PLS-S1]	15.3
FLSLIPHIVSGVASLAKHF-NH2 [PLS-S2]	15

Alright, here's another substance for you.
Item under review: FLSMIPHIVSGVAALAKHL-NH2 [PLS-S4] . Reported IC50?
17.2

* * *

- System: S. pyogenes ATCC 19615
- ASSAY_SETUP: LB medium (pH 7), absorbance at 630 nm; average of three independent experiments in triplicates
Ends that are not written are not given here.
Recorded MIC, one value per entry.
Number only, in µM; omit the unit.

Consider the reported MIC for these substances:
FLSLIPHIVSGVASLAKHF-NH2 [PLS-S2]	1.56
FLSLIPHIVSGVASIAKHF-NH2 [PLS-S1]	3.12
FLSLIPHIVSGVASLAIHF-NH2 [PLS-S3]	12.5

Alright, here's another substance for you.
Item under review: FLSMIPHIVSGVAALAKHL-NH2 [PLS-S4] . Reported MIC?
3.12

* * *

- Tested on: P. aeruginosa ATCC 27853
- ASSAY_SETUP: LB medium (pH 7), absorbance at 630 nm; average of three independent experiments in triplicates
Ends that are not written are not given here.
EXPERIMENTAL_ENDPOINT: MIC

FLSLIPHIVSGVASIAKHF-NH2 [PLS-S1]	>100 µM
FLSLIPHIVSGVASLAIHF-NH2 [PLS-S3]	>200 µM

Alright, here's another substance for you.
Item under review: LLGMIPVAISAISALSKL-NH2 [PLS-S5] . Reported MIC?
>100 µM
